Tested system: Renin (Homo sapiens)
Sequence (P00797 whole entry): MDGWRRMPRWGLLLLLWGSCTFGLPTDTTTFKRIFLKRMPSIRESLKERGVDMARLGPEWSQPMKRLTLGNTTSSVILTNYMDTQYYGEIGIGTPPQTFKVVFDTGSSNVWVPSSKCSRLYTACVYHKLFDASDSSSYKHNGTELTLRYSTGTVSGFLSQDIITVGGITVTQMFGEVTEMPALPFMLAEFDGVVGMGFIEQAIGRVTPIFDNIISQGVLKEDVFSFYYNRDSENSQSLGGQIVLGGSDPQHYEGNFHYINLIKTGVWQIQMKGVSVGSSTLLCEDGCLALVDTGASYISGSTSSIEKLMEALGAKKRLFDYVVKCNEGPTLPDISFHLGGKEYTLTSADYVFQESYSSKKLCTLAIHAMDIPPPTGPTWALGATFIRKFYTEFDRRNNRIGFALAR
Measurement notes: Concentration required to inhibit human plasma renin by 50% using radio-immunoassay was determined
Where a SMILES comes first, the peptide text is derived from it. [ ]: non-standard residue; d: D form. The star is where a group is joined. Cha = N[C@@H](CC1CCCCC1)C(=O)O; Boc = CC(C)(C)OC(=O)*; CF3 = FC(F)(F)*
Readout: pIC50
As a rule, pIC50 stands for the negative log10 of the concentration, concentration in M.

COc1ccc(C[C@H](NC(=O)CC(C)C)C(=O)CCC(=O)N[C@@H](CC2CCCCC2)C(=O)C(F)(F)CN)cc1    4.60
CCC[C@@H](C(=O)N[C@@H](CC1CCCCC1)C(=O)C(F)(F)CN)N(C)C(=O)[C@H](Cc1ccc(OC)cc1)NC(=O)CC(C)C    4.40

Tell me the measured pIC50 of `COc1ccc(C[C@H](NC(=O)CC(C)C)C(=O)N[C@H](C)C(=O)N[C@@H](CC2CCCCC2)C(=O)C(F)(F)CN)cc1` , please. 4.57

Let us now turn to CC(C)C[C@H](NC(=O)[C@H](Cc1ccccc1)NC(=O)OC(C)(C)C)C(=O)N[C@@H](CC1CCCCC1)C(=O)C(F)(F)F (Boc-Phe-Leu-[Cha]-CF3) 6.60
